Values were extracted from paper PMC3963473.

# System: L6 cells
# assay.procedure: In vitro cytotoxicity assay in L6 cells (Alamar Blue)
# Format: cell-based
# cond: Rattus norvegicus; Table 1, A-ring variants; mammalian L6 cells; mean of two independent assays; read-out: EC50 L6 cells
outcome.measure: pEC50
Scale explanation: pEC50 corresponds to minus log10 of a concentration expressed in moles per litre.

Which value of pEC50 has been reported for CCOC(=O)C1=C(C)N/C(=C/c2cc(C)n(C3CCN(Cc4ccc(C(F)(F)F)cc4)CC3)c2C)C1=O in the records?
5.30

Which value of pEC50 has been reported for CCOC(=O)C1=C(C)N/C(=C/c2cc(C)n(C3CCN(Cc4cocn4)CC3)c2C)C1=O in the records?
6.80

Which value of pEC50 has been reported for CCOC(=O)C1=C(C)N/C(=C/c2cc(C)n(C3CCN(Cc4ccccc4)CC3)c2C)C1=O in the records?
4.70

Which value of pEC50 has been reported for CCOC(=O)C1=C(C)N/C(=C/c2cc(C)n(C3CCN(Cc4cccn4C)CC3)c2C)C1=O in the records?
5.52

Which value of pEC50 has been reported for CCOC(=O)C1=C(C)N/C(=C/c2cc(C)n(C3CCN(CC4CC4)CC3)c2C)C1=O in the records?
4.85

Which value of pEC50 has been reported for CCOC(=O)C1=C(C)N/C(=C/c2cc(C)n(C3CCN(CC(C)(C)C)CC3)c2C)C1=O in the records?
4.06

Which value of pEC50 has been reported for CCOC(=O)C1=C(C)N/C(=C/c2cc(C)n(C3CCN(C)CC3)c2C)C1=O in the records?
5.11

Which value of pEC50 has been reported for CCOC(=O)C1=C(C)N/C(=C/c2cc(C)n(C3CCN(C(C)c4ccccc4C(F)(F)F)CC3)c2C)C1=O (centres unmarked) in the records?
5.52

Which value of pEC50 has been reported for CCOC(=O)C1=C(C)N/C(=C/c2cc(C)n(C3CCN(Cc4ccc(C(F)(F)F)nc4)CC3)c2C)C1=O in the records?
4.31

Which value of pEC50 has been reported for CCOC(=O)C1=C(C)N/C(=C/c2cc(C)n(C3CCN(CCc4ccc(C(F)(F)F)cc4)CC3)c2C)C1=O in the records?
4.72

Which value of pEC50 has been reported for CCOC(=O)C1=C(C)N/C(=C/c2cc(C)n(C3CCN(Cc4ccccc4C(F)(F)F)CC3)c2C)C1=O in the records?
5.77

Which value of pEC50 has been reported for CCCN1CCC(n2c(C)cc(/C=C3/NC(C)=C(C(=O)OCC)C3=O)c2C)CC1 in the records?
5.18

Which value of pEC50 has been reported for CCOC(=O)C1=C(C)N/C(=C/c2cc(C)n(C3CCN(CC4CCOCC4)CC3)c2C)C1=O in the records?
4.37

Which value of pEC50 has been reported for CCOC(=O)C1=C(C)N/C(=C/c2cc(C)n(C3CCN(Cc4ccc(N5CCOCC5)cc4)CC3)c2C)C1=O in the records?
4.28
